Species on record: Mus musculus
assay_info: Tested for the concentration for the inhibition of spontaneous activity (SA).
Format: functional
property_name: log10 of ED50 (log10 of the value in mg/kg)

> print(dat)
                                    compound  property.name  reading
 1  CC1=CC[C@@H]2[C@@H](C1)c1c(O)cc(C(C)(C)CCCCC(=O)NCc3ccc(S(N)(=O)=O)cc3)cc1OC2(C)C  log10 of ED50     1.49
 2  CC1=CC[C@@H]2[C@@H](C1)c1c(O)cc(C(C)(C)CCCCOc3ccc(C#N)cc3)cc1OC2(C)C  log10 of ED50    -1.00
 3  CCCCCc1cc(O)c2c(c1)OC(C)(C)[C@@H]1CCC(C)=C[C@@H]21  log10 of ED50     0.00
 4  CC1=CC[C@@H]2[C@@H](C1)c1c(O)cc(C(C)(C)CCCCC(C#N)c3ccccc3)cc1OC2(C)C (some centres not stated)  log10 of ED50     0.81
 5  CC1=CC[C@@H]2[C@@H](C1)c1c(O)cc(C(C)(C)CCCCC#N)cc1OC2(C)C  log10 of ED50    -2.15
 6  CC1=CC[C@@H]2[C@@H](C1)c1c(O)cc(C(C)(C)CCCCC(=O)N(C)C)cc1OC2(C)C  log10 of ED50    -2.82
 7  CC1=CC[C@@H]2[C@@H](C1)c1c(O)cc(C(C)(C)CCCC(O)C#N)cc1OC2(C)C (some centres not stated)  log10 of ED50    -0.28
 8  CC1=CC[C@@H]2[C@@H](C1)c1c(O)cc(C(C)(C)CCCCC(=O)NN3CCCCC3)cc1OC2(C)C  log10 of ED50    -1.40
 9  CC1=CC[C@@H]2[C@@H](C1)c1c(O)cc(C(C)(C)CCCCC(=O)Nc3ccc(S(N)(=O)=O)cc3)cc1OC2(C)C  log10 of ED50     0.31
10  CCN(CC)C(=O)CCCCC(C)(C)c1cc(O)c2c(c1)OC(C)(C)[C@@H]1CC=C(C)C[C@@H]21  log10 of ED50    -1.05
11  CC1=CC[C@@H]2[C@@H](C1)c1c(O)cc(C(C)(C)CCCCCC#N)cc1OC2(C)C  log10 of ED50    -2.22
12  CCCCCCC(C)(C)c1cc(O)c2c(c1)OC(C)(C)[C@@H]1CC=C(C)C[C@@H]21  log10 of ED50    -1.15
